Assay: Inhibition of NADPH oxidase
quantity-name: IC50 (µM)
Give just the numeric value; µM need not be written.

The reported value for CN1C(=O)[C@]23CC4=CC=C[C@H](O)[C@H]4N2C(=O)[C@@]1(CO)SS3 in terms of IC50 is 9

----------
Assay: Immunosuppression of mouse spleen lymphocytes
Format: functional, tissue-based
Details: lymphocyte
quantity-name: pIC50
To interpret pIC50, take it as minus log10 of a concentration measured in moles per litre.

The reported value for CS[C@]1(Cc2c[nH]c3ccccc23)NC(=O)[C@](CO)(SC)N(C)C1=O in terms of pIC50 is 4.62

----------
Molecular target: Acetolactate synthase catalytic subunit, mitochondrial (Saccharomyces cerevisiae S288c)
Sequence (P07342 whole entry): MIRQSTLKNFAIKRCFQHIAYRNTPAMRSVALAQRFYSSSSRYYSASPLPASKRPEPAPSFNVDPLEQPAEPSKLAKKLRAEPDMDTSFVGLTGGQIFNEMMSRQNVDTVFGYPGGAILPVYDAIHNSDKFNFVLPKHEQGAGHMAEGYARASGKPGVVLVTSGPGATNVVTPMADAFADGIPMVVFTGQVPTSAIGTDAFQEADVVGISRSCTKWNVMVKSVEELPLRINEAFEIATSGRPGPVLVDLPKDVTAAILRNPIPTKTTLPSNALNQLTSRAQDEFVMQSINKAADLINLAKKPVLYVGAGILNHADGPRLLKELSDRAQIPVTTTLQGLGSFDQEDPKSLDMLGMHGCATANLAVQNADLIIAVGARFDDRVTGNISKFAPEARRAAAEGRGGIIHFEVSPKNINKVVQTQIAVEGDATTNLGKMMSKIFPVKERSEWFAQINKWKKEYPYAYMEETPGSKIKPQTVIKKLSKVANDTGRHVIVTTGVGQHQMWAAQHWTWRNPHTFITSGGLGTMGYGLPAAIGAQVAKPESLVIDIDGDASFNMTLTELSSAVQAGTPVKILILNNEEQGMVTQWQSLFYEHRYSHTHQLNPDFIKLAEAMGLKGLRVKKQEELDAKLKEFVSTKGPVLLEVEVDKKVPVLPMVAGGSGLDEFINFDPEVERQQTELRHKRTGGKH
Test: Inhibition of Saccharomyces cerevisiae acetolactate synthase
quantity-name: IC50 (nM)
Give just the numeric value; nM need not be written.

The reported value for CN1C(=O)[C@]23CC4=CC=C[C@H](O)[C@H]4N2C(=O)[C@@]1(CO)SS3 in terms of IC50 is 200

----------
Test system: Pythium aphanidermatum
Assay: Antimicrobial activity against Pythium aphanidermatum
Format: functional
Conditions: read-out: ED50 (the source's name)
quantity-name: pEC50
To interpret pEC50, take it as minus log10 of a concentration measured in moles per litre.

The reported value for CN1C(=O)[C@]23CC4=CC=C[C@H](O)[C@H]4N2C(=O)[C@@]1(CO)SS3 [GLIOTOXIN] in terms of pEC50 is 4.43

----------
The following compounds are shown together with reported Ratio IC50 values.
Experiment: Selectivity index, ratio of IC50 for human Jurkat cells to IC50 for Trypanosoma brucei brucei
Assay type: toxicity, cell-based
Conditions: jurkat
Give just the numeric value; ratio need not be written.

Here is how some compounds turned out for Ratio IC50.
INSERT INTO results (compound, measure_unit, experimental_value) VALUES
  ('CS[C@]1(Cc2c[nH]c3ccccc23)NC(=O)[C@](CO)(SC)N(C)C1=O', 'ratio', 16.1),
  ('CS[C@]1(COC(C)=O)C(=O)N2[C@H]3C(=CC=C[C@@H]3OC(C)=O)C[C@@]2(SC)C(=O)N1C', 'ratio', 1.6),
  ('CS[C@]1(CO)C(=O)N2[C@H]3C(=CC=C[C@@H]3OC(C)=O)C[C@@]2(SC)C(=O)N1C', 'ratio', 19.2),
  ('COc1ccc2c(c1)NC(=O)[C@@]21C=C2C(=O)N3CCC[C@H]3C(=O)N2[C@H]1C=C(C)C', 'ratio', 3.7);

Next compound, please.
The reported value for CS[C@]1(CO)C(=O)N2c3c(O)cccc3C[C@@]2(SC)C(=O)N1C [DEHYDROBIS(METHYLTHIO)GLIOTOXIN] in terms of Ratio IC50 is 16.6
